// data source = patent US5369096A

# System: human normal lymphocytes adhering to vascular endothelial cells of the normal human umbilical cord
# Protocol Summary: inhibition of adhesion of human normal lymphocytes to rhIL1β-stimulated vascular endothelial cells, liposome dispersion
# Type: cell-based
# Test Settings: 20 μg/ml equivalent, rhIL1β 200 U/ml, 485 nm/535 nm
Measured Endpoint: Amount of human normal lymphocytes adhered (fluorescence intensity)

Consider the compound shown here: "CCCCCCCCCCCCCCC(CCCCCCCCCCCCCC)C(=O)Nc1ccc(COCCOCCOCCOCCO[C@@H]2O[C@H](CO)[C@@H](O[C@@H]3O[C@H](CO)[C@H](O)[C@H](O[C@]4(C(=O)O)C[C@H](O)[C@@H](NC(C)=O)[C@H]([C@H](O)[C@H](O)CO)O4)[C@H]3O)[C@H](O[C@@H]3O[C@@H](C)[C@@H](O)[C@@H](O)[C@@H]3O)[C@H]2O)cc1" What is its recorded Amount of human normal lymphocytes adhered (fluorescence intensity)?
10513

Consider the compound shown here: "CCCCCCCCCCCCCCC(CCCCCCCCCCCCCC)C(=O)Nc1ccc(COCCOCCOCCO[C@@H]2O[C@H](CO)[C@@H](O[C@@H]3O[C@H](CO)[C@H](O)[C@H](O[C@]4(C(=O)O)C[C@H](O)[C@@H](NC(C)=O)[C@H]([C@H](O)[C@H](O)CO)O4)[C@H]3O)[C@H](O[C@@H]3O[C@@H](C)[C@@H](O)[C@@H](O)[C@@H]3O)[C@H]2O)cc1" What is its recorded Amount of human normal lymphocytes adhered (fluorescence intensity)?
6993

Consider the compound shown here: "CCCCCCCCCCCCCCC(CCCCCCCCCCCCCC)C(=O)Nc1ccc(COCCOCCOCCOCCOCCO[C@@H]2O[C@H](CO)[C@@H](O[C@@H]3O[C@H](CO)[C@H](O)[C@H](O[C@]4(C(=O)O)C[C@H](O)[C@@H](NC(C)=O)[C@H]([C@H](O)[C@H](O)CO)O4)[C@H]3O)[C@H](O[C@@H]3O[C@@H](C)[C@@H](O)[C@@H](O)[C@@H]3O)[C@H]2O)cc1" What is its recorded Amount of human normal lymphocytes adhered (fluorescence intensity)?
8817
